pIC50: −log10 of the molar value.
Please find below pIC50 measurements for PIK3CG (human) (UniProt P48736), combined from several publications.

Which measured pIC50 belongs to CN(C)C(=O)Nc1ccc2c(c1)C(=O)/C(=C/c1cn(C)c3nccc(-c4ccccc4)c13)O2 , tested on PIK3CG (human) (UniProt P48736)?
< 5.00

Which measured pIC50 belongs to C[C@H](Nc1ncnc2scnc12)c1cc2cccc(Cl)c2c(OC2CCN(S(C)(=O)=O)CC2)n1 , tested on PIK3CG (human) (UniProt P48736)?
> 5.00

Which measured pIC50 belongs to C[C@H](NC(=O)c1nc(-c2cccc(NS(C)(=O)=O)c2)cnc1N)c1cc2cccc(Cl)c2c(=O)n1-c1ccccc1 , tested on PIK3CG (human) (UniProt P48736)?
> 7.00

Which measured pIC50 belongs to Cc1cccc2cc(Cn3nc(I)c4c(N)ncnc43)n(C3CCCCC3)c(=O)c12 , tested on PIK3CG (human) (UniProt P48736)?
> 7.00

====

Please find below pIC50 measurements for PIK3CG (human) (UniProt P48736), combined from several publications.
pIC50: −log10 of the molar value.

Past entries and their recorded results:
Cn1cc(/C=C2\Oc3cccc(O)c3C2=O)c2c(-c3cccc(OC(F)(F)F)c3)ccnc21 | < 5.00
Cc1cccc2cc([C@H](C)Nc3ncnc4cccnc34)nc(OCCN3CCCC3)c12 | > 6.00
CN1CCN(CCCn2cc(C=C3Oc4c(ccc(O)c4O)C3=O)c3cccnc32)CC1 | 5.05
CC(C)/C=C/C(=O)CCC(=O)N1CCN(Cc2cc3nc(-c4cccc5[nH]ncc45)nc(N4CCOCC4)c3s2)CC1 | < 6.00
C[C@H](Nc1ccc2c(c1)OCCn1cc(N3C(=O)O[C@H](C)[C@H]3C(F)F)nc1-2)C(N)=O | 6.32

Which measured pIC50 belongs to Cc1sc2ncnc(N[C@@H](C)c3cc4cccc(Cl)c4c(=O)n3-c3ccccc3)c2c1C , tested on PIK3CG (human) (UniProt P48736)?
5.00 to 6.00

Which measured pIC50 belongs to CN1CCN(C2CN(c3cnc4ccc(-c5ccc6oc(N)nc6c5)nc4n3)C2)CC1 , tested on PIK3CG (human) (UniProt P48736)?
< 5.00

Which measured pIC50 belongs to C[C@H](Nc1ncnc2cccnc12)c1cc2cccc(Cl)c2c(C(=O)N2CCCCC2)n1 , tested on PIK3CG (human) (UniProt P48736)?
> 6.00

====

Please find below IC50 measurements for PIK3CG (human), combined from several publications.

Cc1ccccc1-n1c(Cn2nc(-c3ccc4sc(N)nc4c3)c3c(N)ncnc32)cc2cccc(C)c2c1=O | < 100 nM
CNC(=O)Nc1ccc(-c2nc(N3CCOCC3)nc3c2cnn3C2CCOCC2)cc1 | > 100 nM
C[C@H](Nc1ncnc2ccc(C#N)cc12)c1cc2cccc(-c3cnc(C4CC4)nc3)c2c(=O)n1-c1ccccc1 | 67 nM

Query compound follows.
Which measured IC50 belongs to CC[C@H](Nc1ncnc2ccc(C#N)cc12)c1cc2cccc(-c3cnc(OC)nc3)c2c(=O)n1-c1ccccc1 , tested on PIK3CG (human)?
237 nM

====

Please find below pIC50 measurements for PIK3CG (human), combined from several publications.
pIC50: −log10 of the molar value.

Past entries and their recorded results:
COc1cc(-c2nn(Cc3cc4cccc(C)c4c(=O)n3-c3ccccc3F)c3ncnc(N)c23)ccc1Cl | > 6.00
CC(C)n1ccc2c(N3CCOCC3)nc(-c3ccc(NC(=O)Nc4ccc(C(=O)N5CCC(N(C)C)CC5)cc4)cc3)nc21 | 7.42

Which measured pIC50 belongs to Cc1cccc2cc([C@H](C)Nc3ncnc4[nH]cnc34)n(C(C)C)c(=O)c12 , tested on PIK3CG (human)?
> 7.00

Which measured pIC50 belongs to Cn1cc(/C=C2\Oc3cc(O)cc(O)c3C2=O)c2c(N3CC4CCC(C3)O4)ccnc21 , tested on PIK3CG (human)?
7.15

Which measured pIC50 belongs to Cn1ncc2c(Oc3ccc4[nH]ccc4c3)nc(-c3ccccc3)nc21 , tested on PIK3CG (human)?
6.24

Which measured pIC50 belongs to Cc1ccccc1-n1c(Cn2nc(-c3ccc4nc(N)ncc4c3)c3c(N)ncnc32)cc2cccc(C)c2c1=O , tested on PIK3CG (human)?
> 7.00

Which measured pIC50 belongs to C[C@H](Nc1ccnc2ccnn12)c1cc2cccc(Cl)c2c(OC2CCN(S(C)(=O)=O)CC2)n1 , tested on PIK3CG (human)?
< 5.00

Which measured pIC50 belongs to C[C@H](Nc1ccnn2ccnc12)c1cc2cccc(Cl)c2c(OCCN2CCCC2)n1 , tested on PIK3CG (human)?
< 5.00

====

Please find below pIC50 measurements for PIK3CG (human) (UniProt P48736), combined from several publications.
Value format note: pIC50 is -log10 of concentration (mol/L); just state the number.

Past entries and their recorded results:
COC1CCN(C(=O)c2ccc(-c3ccnc4c3c(/C=C3\Oc5cccc(O)c5C3=O)cn4C)cc2)C1 (stereo not drawn) | 7.59
C[C@H](Nc1ncnc2cccc(F)c12)c1cc2cccc(-c3cnc(N)nc3)c2c(=O)n1-c1ccccc1 | 6.55
COC1CCN(C(=O)C2CCN(c3ccnc4c3c(/C=C3\Oc5ccc(NC(=O)Nc6cccnc6)cc5C3=O)cn4C)CC2)C1 (stereo not drawn) | 5.88
C[C@H](Nc1ccc2c(c1)N(C)CCn1cc(N3C(=O)OC[C@H]3C(F)F)nc1-2)C(N)=O | 7.05
CC[C@H](Nc1ncnc2ccc(C#N)cc12)c1nc2cccc(-c3cnc(N(C)C)nc3)c2c(=O)n1-c1ccccc1 | 6.13

Which measured pIC50 belongs to c1ccc(CN2CCC(n3ncc4c(Nc5ccc6[nH]ccc6c5)nc(-c5ccccc5)nc43)CC2)cc1 , tested on PIK3CG (human) (UniProt P48736)?
4.99

====

Please find below IC50 measurements for PIK3CG (human) (UniProt P48736), combined from several publications.
Response body: numeric value in nM, unit text excluded.

Past entries and their recorded results:
Cn1ncc2c(Nc3ccc(C(N)=O)cc3)nc(-c3cccc(Cl)c3)nc21 | 331
CNC(=O)C(C)Cn1cnc2c(F)cc(-c3cnc(OC)c(NS(=O)(=O)c4ccc(F)cc4Cl)c3)cc2c1=O (single isomer, unassigned) | 29.2
COc1ccc(Nc2nc(-c3cccc(O)c3)nc3c2cnn3C2CCN(Cc3ccccc3)CC2)cc1OC | 5920
CNC(=O)Nc1ccc2c(c1)C(=O)/C(=C/c1c[nH]c3ncc(OC)cc13)O2 | 183
C[C@@H](C(N)=O)N(C)c1ccc2c(c1)OCCn1cc(N3C(=O)SC[C@H]3C(F)F)nc1-2 | 478

Query molecule follows.
Which measured IC50 belongs to CNc1nc2cc(-c3nc(N4CCOCC4)c4ccn(CC(F)(F)F)c4n3)ccc2[nH]1 , tested on PIK3CG (human) (UniProt P48736)?
3660

====

Please find below IC50 measurements for PIK3CG (human) (UniProt P48736), combined from several publications.

Past entries and their recorded results:
Cn1cc(/C=C2\Oc3cc(O)cc(O)c3C2=O)c2c(-c3cccc(NS(C)(=O)=O)c3)ccnc21 | 106 nM
C[C@H](Nc1ncnc2scnc12)c1cc2cccc(Cl)c2c(C(=O)NCC2CCOCC2)n1 | > 10000 nM
CCc1ccccc1-n1c(Cn2nc(-c3cc(O)cc(F)c3)c3c(N)ncnc32)nc2scc(C)c2c1=O | < 100 nM
CC(C)Oc1ccc(-c2nn([C@@H](C)c3cc4ccccc4c(=O)n3-c3ccccc3)c3ncnc(N)c23)cc1F | 22.2 nM
Nc1nc2cc(-c3ccc4ncc(N5CC(N6CCOCC6)C5)cc4n3)ccc2o1 | < 1000 nM
CC(=O)Nc1nc2cc(-c3nn(Cc4cc5cccc(C)c5c(=O)n4-c4ccccc4C)c4ncnc(N)c34)ccc2o1 | < 100 nM

So what's the measured IC50 for this one? C[C@@H]1COCCN1c1cnc2ccc(-c3ccc4oc(N)nc4c3)nc2n1
< 100 nM

So what's the measured IC50 for this one? C[C@H](NC(=O)c1c(N)nn2cccnc12)c1cc2cccc(Cl)c2c(=O)n1C1CC1
100 to 1000 nM

====

pIC50: −log10 of the molar value.
Please find below pIC50 measurements for PIK3CG (human) (UniProt P48736), combined from several publications.

Past entries and their recorded results:
CN(C)CCNC(=O)Nc1ccc(-c2nc(N3CCOCC3)c3ccn(CC(F)(F)F)c3n2)cc1 | 6.18
Nc1ncc(-c2nc(N3CCOCC3)nc3c2cnn3CC(=O)N2CCCC2)cn1 | 5.00 to 7.00

Query compound follows.
Which measured pIC50 belongs to Cc1cccc2cc([C@H](C)Nc3ncnc4[nH]nc(Cl)c34)n(C3CC3)c(=O)c12 , tested on PIK3CG (human) (UniProt P48736)?
> 6.00
